Molecular target: RNP (ribonucleoprotein)
Assay: AtheNA, Ab 25 ug/ml
endpoint name: Athena reading (relative luminescence units)
Answer with a bare number; do not write a unit.

Known results for binders:
{"columns": ["binder", "reading"],
 "data": [
  ["CH241 (antibody, from a related filing, V domains shown) VH: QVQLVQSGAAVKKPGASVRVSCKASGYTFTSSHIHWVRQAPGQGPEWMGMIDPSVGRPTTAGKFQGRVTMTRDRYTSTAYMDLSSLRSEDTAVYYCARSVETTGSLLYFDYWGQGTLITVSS VL: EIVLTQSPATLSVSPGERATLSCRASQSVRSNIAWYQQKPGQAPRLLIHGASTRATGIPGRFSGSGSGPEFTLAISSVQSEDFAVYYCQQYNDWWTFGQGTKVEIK", 6],
  ["CH235_4A (antibody, from a related filing, V domains shown) VH: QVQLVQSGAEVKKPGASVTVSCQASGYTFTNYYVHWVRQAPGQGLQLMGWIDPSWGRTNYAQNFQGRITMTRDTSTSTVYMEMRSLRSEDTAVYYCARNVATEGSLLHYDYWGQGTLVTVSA VL: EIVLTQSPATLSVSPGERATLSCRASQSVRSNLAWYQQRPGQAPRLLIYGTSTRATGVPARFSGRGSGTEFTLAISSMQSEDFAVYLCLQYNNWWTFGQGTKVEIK", 5],
  ["CH239_4A/293i (antibody, from a related filing, V domains shown) VH: QVQLVQSGAEVRKPGASVTVSCKASGYTFNNFYVHWVRQAPGQGLECMGWIDPSVGRINYAQKFQGRVTMTRDRSTSTVYMGLSSLRSEDTAIYYCVRDVGTEGSLLHFDHWGQGTLVIVSA VL: EIVLTQSPATLSVSPGERATLSCRATQSVRSNVAWYQQKPGQAPRLLIYSASTRATGIPARFSGSGSGTEFTLTIASMQSEDFAVYYCLQYDDWWTFGQGTKVEIK", 96],
  ["CH236_4A/293i (antibody, from a related filing, V domains shown) VH: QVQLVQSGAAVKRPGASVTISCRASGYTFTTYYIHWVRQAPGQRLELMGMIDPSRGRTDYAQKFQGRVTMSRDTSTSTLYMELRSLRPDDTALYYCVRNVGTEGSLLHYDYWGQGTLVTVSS VL: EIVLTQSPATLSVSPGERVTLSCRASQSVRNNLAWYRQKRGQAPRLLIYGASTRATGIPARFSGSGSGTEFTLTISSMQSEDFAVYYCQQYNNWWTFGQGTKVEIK", 69]
]}

Lab note: next binder to report on.
So for CH240_4A/293i (antibody, from a related filing, V domains shown) VH: QVQLVQSGTEVRKPGASVTISCKASGYTFNNFYVHWVRQAPGQGLECMGWIDPSVGRISYGQKFQGRVTMTRDRSTSTVYMGLSSLRSEDTAMYYCVRDVGTEGSLLHFDHWGQGTLVIVSA VL: EIVLTQSPATLSVSPGERATLSCRATQSVRSNLAWYQQKRGQAPRLLIYSASTRATGIPARFSGSGSGTEFTLTISSVQSEDFAVYYCLQYNNWWTFGQGTKVEIK , the logged Athena reading (relative luminescence units) turned out to be 11
